Values compiled from paper PMC7098970.

Please provide measured τdes IGly (effect on time constant of desensitization) for the entries that follow.
Tested on: glycine receptor (GlyR)
Experiment: Glycine-induced chloride current (IGly), whole-cell patch-clamp in isolated pyramidal neurons of the rat hippocampus
Format: cell-based
Details: 10 μM compound; 100 μM glycine
I only need the number, in %, no unit after it.

Q: Entry under review: C[C@]12CC[C@H]3[C@@H](CCC4=CC(=O)CC[C@@]43C)[C@@H]1CC[C@@H]2O [Compound 1, 17β-Hydroxyandrost-4-en-3-one] . Reported τdes IGly (effect on time constant of desensitization)?
A: −67

Q: Similarly, C[C@]12CCC(=O)C=C1CC[C@@H]1[C@@H]2CC[C@]2(C)C(=O)CC[C@@H]12 ?
A: −84

Q: Similarly, C[C@]12CCC(=O)C[C@@H]1CC[C@@H]1[C@@H]2CC[C@]2(C)C(=O)CC[C@@H]12 ?
A: −72
